molecular target: C-8 sterol isomerase ERG2 (Saccharomyces cerevisiae S288c) (UniProt P32352); experiment: Inhibition of yeast sterol-delta8/7-isomerase assessed as accumulation of cholesta-8,14-dien-3beta-ol at 50 uM
Sequence (P32352 whole entry, looked up): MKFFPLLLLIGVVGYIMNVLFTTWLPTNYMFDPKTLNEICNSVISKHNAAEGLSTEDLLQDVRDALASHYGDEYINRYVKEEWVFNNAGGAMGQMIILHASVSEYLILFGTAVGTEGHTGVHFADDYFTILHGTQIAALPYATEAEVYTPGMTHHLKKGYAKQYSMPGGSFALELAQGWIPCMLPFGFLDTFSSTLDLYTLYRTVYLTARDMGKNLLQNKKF
Calls of active or inactive are those of the source. The rule behind the calls is not given here.
Parameter call: string, one of T for active, F for inactive

Answer briefly: the call reported for CN1CCCN(Cc2ccccc2)[C@H](Cc2ccccc2)C1 in this assay.
T

Any idea what this test logged for C[C@H]1CN(CC2CCCCC2)CCCN1Cc1ccccc1 ?
F

Assay result, entry c1ccc(C[C@@H]2CN(Cc3ccccc3)CCCN2Cc2ccccc2)cc1 — outcome?
T

Hey, what did the test say about C[C@@H]1CN(CC2CCCCC2)CCCN1Cc1ccccc1 ?
F

What classification did c1ccc(CCCN2CCCN(Cc3ccccc3)[C@H](Cc3ccccc3)C2)cc1 end up with in this test?
T

In this assay, the call recorded for CC(C)[C@H]1CN(CC2CCCCC2)CCCN1Cc1ccccc1 was what?
F

I'd appreciate the recorded outcome for CC(C)=CCN1CCCN(Cc2ccccc2)[C@H](Cc2ccccc2)C1 from this test.
T

Per the assay record, what outcome was assigned to CCCCN1CCCN(Cc2ccccc2)[C@H](C)C1 ?
F

GET /call?item= COc1ccc(CN2CCCN(Cc3ccccc3)[C@H](Cc3ccccc3)C2)cc1 returns the recorded outcome of this test.
T

How was C[C@@H]1CN(CCCCc2ccccc2)CCCN1Cc1ccccc1 classified in this test?
F

Which result was noted for this molecule in the test: c1ccc(CCCCN2CCCN(Cc3ccccc3)[C@H](Cc3ccccc3)C2)cc1
T

###

I'd appreciate it if you could supply Ki values for the items below.
biological target: Sigma non-opioid intracellular receptor 1 (Cavia porcellus, UniProt Q60492); test: Displacement of [3H]-pentazocine from sigma1 receptor in guinea pig brain membranes after 120 mins by liquid scintillation counting
Sequence (Q60492 whole entry): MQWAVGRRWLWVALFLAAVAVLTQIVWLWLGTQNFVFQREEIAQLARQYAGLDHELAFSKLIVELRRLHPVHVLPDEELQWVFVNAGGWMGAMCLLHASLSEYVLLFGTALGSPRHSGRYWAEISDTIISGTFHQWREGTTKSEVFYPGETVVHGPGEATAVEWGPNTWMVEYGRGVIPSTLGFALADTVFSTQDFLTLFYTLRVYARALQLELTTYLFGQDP
Give just the number in µM; leave the unit off.

Please give the documented Ki of CCCCN1CCN(CCc2ccc(Cl)c(Cl)c2)CC1
0.00055

Determine its reported Ki: c1ccc(CCCN2CCCN(Cc3ccccc3)[C@@H](Cc3ccccc3)C2)cc1
0.073

Read off the recorded Ki for c1ccc(CCN2CCCN(Cc3ccccc3)[C@@H](Cc3ccccc3)C2)cc1
0.04

Input CN1CCCN(Cc2ccccc2)[C@@H](Cc2ccccc2)C1 , output reported Ki.
0.448

Look up Ki of C[C@H]1CN(CC2CCCCC2)CCCN1Cc1ccccc1 and report it.
0.00022

Assign Ki to the following record: C[C@H]1CN(CC2CCCCC2)CCCN1Cc1ccc(Cl)cc1
0.0049

Name the recorded Ki of the compound listed here: COc1ccc(CN2CCCN(Cc3ccccc3)[C@H](Cc3ccccc3)C2)cc1
0.042

Return Ki (reported value) for this compound: CCCCN1CCCN(C)[C@@H](Cc2ccccc2)C1
0.12

Give me measured Ki, please, for this compound: CN1CCCN(Cc2ccccc2)[C@H](Cc2ccccc2)C1
0.28

Identify measured Ki associated with c1ccc(CCCCN2CCCN(Cc3ccccc3)[C@@H](Cc3ccccc3)C2)cc1
0.038

Respond only with Ki recorded for C[C@@H]1CN(CC2CCCCC2)CCCN1Cc1ccccc1
0.00038

###

biological target: C-8 sterol isomerase ERG2 (Saccharomyces cerevisiae S288c) (UniProt P32352); experiment: Inhibition of yeast sterol-delta8/7-isomerase assessed as accumulation of cholesta-7-en-3beta-ol at 1 uM
Active and inactive are the calls of the source. No cut-off for these calls is given here.
Answer with one of the outcomes given here: 1.0 = active, 0.0 = inactive

Outcome logged for COc1ccc(CN2CCCN(Cc3ccccc3)[C@@H](Cc3ccccc3)C2)cc1 in this assay:
0.0

Any idea what this test logged for CCCCN1CCCN(Cc2ccccc2)[C@@H](Cc2ccccc2)C1 ?
1.0

# outcome recorded in this test, key = C[C@@H]1CN(CC2CCCCC2)CCCN1Cc1ccccc1
1.0

Recorded test call requested for C[C@H]1CN(CC2CCCCC2)CCCN1Cc1ccccc1
1.0

Per the records of this test, what outcome belongs to COc1ccc(CN2CCCN(Cc3ccccc3)[C@H](Cc3ccccc3)C2)cc1 ?
1.0

In this assay, the call recorded for CCCCN1CCCN(Cc2ccccc2)[C@@H](C)C1 was what?
1.0

Give the logged outcome of this assay for the following molecule: c1ccc(C[C@H]2CNCCCN2Cc2ccccc2)cc1
1.0

Could you please tell me the result logged for CC(C)[C@H]1CN(CC2CCCCC2)CCCN1Cc1ccccc1 in this assay?
1.0

Short answer needed: outcome of this test for c1ccc(CCCCN2CCCN(Cc3ccccc3)[C@H](Cc3ccccc3)C2)cc1 ?
1.0

So what was the verdict on CN1CCCN(Cc2ccccc2)[C@H](Cc2ccccc2)C1 in this test?
1.0

Test call, this molecule: CC(C)=CCN1CCCN(Cc2ccccc2)[C@H](Cc2ccccc2)C1
1.0

Field: outcome | Entry: CN1CCCN(Cc2ccccc2)[C@@H](Cc2ccccc2)C1
1.0

Can you look up the reported call for c1ccc(CCCN2CCCN(Cc3ccccc3)[C@@H](Cc3ccccc3)C2)cc1 for me?
1.0

Given COc1ccc(CN2CCCN(Cc3ccccc3)[C@@H](C(C)C)C2)cc1 , state the outcome it received in this test.
1.0

Any idea what this test logged for C[C@H]1CN(CCCCc2ccccc2)CCCN1Cc1ccccc1 ?
1.0

Per the records of this test, what outcome belongs to c1ccc(CCN2CCCN(Cc3ccccc3)[C@H](Cc3ccccc3)C2)cc1 ?
1.0

What classification did c1ccc(C[C@@H]2CNCCCN2Cc2ccccc2)cc1 end up with in this test?
1.0

Per the assay record, what outcome was assigned to c1ccc(C[C@@H]2CN(Cc3ccccc3)CCCN2Cc2ccccc2)cc1 ?
1.0

How did this test come out for c1ccc(CCCCN2CCCN(Cc3ccccc3)[C@@H](Cc3ccccc3)C2)cc1 ?
1.0

Assay result, entry c1ccc(CCCN2CCCN(Cc3ccccc3)[C@H](Cc3ccccc3)C2)cc1 — outcome?
1.0

Recorded test outcome, item CCCCN1CCCN(Cc2ccccc2)[C@H](Cc2ccccc2)C1
1.0

I'd appreciate the recorded outcome for c1ccc(CCN2CCCN(Cc3ccccc3)[C@@H](Cc3ccccc3)C2)cc1 from this test.
1.0

Look up the recorded call for c1ccc(C[C@H]2CN(Cc3ccccc3)CCCN2Cc2ccccc2)cc1 in this test.
1.0

Entry C[C@@H]1CN(CCCCc2ccccc2)CCCN1Cc1ccccc1 : call = ?
1.0

Give the logged outcome of this assay for the following molecule: CCCCN1CCCN(Cc2ccccc2)[C@H](C)C1
1.0

###

molecular target: C-8 sterol isomerase ERG2 (Saccharomyces cerevisiae S288c) (UniProt P32352); test: Inhibition of yeast sterol-delta8/7-isomerase assessed as accumulation of cholesta-8-en-3beta-ol at 1 uM
The source made the active and inactive calls. The calls are words filed in the database; no cut-off is given here.
Entry note: the call must match one of active, inactive

Can you look up the reported call for C[C@@H]1CN(CC2CCCCC2)CCCN1Cc1ccccc1 for me?
inactive

# lookup: test call for C[C@H]1CN(CC2CCCCC2)CCCN1Cc1ccccc1
inactive

What call does the record list for CCCCN1CCCN(Cc2ccccc2)[C@@H](C)C1 ?
active

Call for entry c1ccc(CCCCN2CCCN(Cc3ccccc3)[C@H](Cc3ccccc3)C2)cc1 :
inactive

// outcome(item) with item = CN1CCCN(Cc2ccccc2)[C@@H](Cc2ccccc2)C1
inactive

I'd appreciate the recorded outcome for c1ccc(CCCN2CCCN(Cc3ccccc3)[C@@H](Cc3ccccc3)C2)cc1 from this test.
active

Per the records of this test, what outcome belongs to C[C@H]1CN(CCCCc2ccccc2)CCCN1Cc1ccccc1 ?
active

What did the test return for CCCCN1CCCN(Cc2ccccc2)[C@H](C)C1 ?
active

What classification did c1ccc(C[C@H]2CNCCCN2Cc2ccccc2)cc1 end up with in this test?
active

For this compound, state the assay outcome: CCCCN1CCCN(Cc2ccccc2)[C@H](Cc2ccccc2)C1
active

# lookup: test call for COc1ccc(CN2CCCN(Cc3ccccc3)[C@H](Cc3ccccc3)C2)cc1
active

Just curious, what result did COc1ccc(CN2CCCN(Cc3ccccc3)[C@@H](Cc3ccccc3)C2)cc1 get here?
active

Please let me know the test result on file for CCCCN1CCCN(Cc2ccccc2)[C@@H](Cc2ccccc2)C1 .
inactive

Write down the call the test reported for this compound. Item: CC(C)[C@H]1CN(CC2CCCCC2)CCCN1Cc1ccccc1
inactive

###

experiment: Metabolic stability in rat microsomes assessed as amount of parent compound remaining after 5 mins; assay type: ADME, Microsome; conditions: read-out: Stability
reported_property: remaining at 5 min

State its remaining at 5 min for this molecule: COc1ccc(CN2CCCN(Cc3ccccc3)[C@@H](C)C2)cc1
< 50%

###

target: C-8 sterol isomerase ERG2 (Saccharomyces cerevisiae S288c) (UniProt P32352); assay: Inhibition of yeast sterol-delta8/7-isomerase assessed as accumulation of cholesta-8-en-3beta-ol at 50 uM
Calls of active or inactive are those of the source. The calls are words filed in the database; no cut-off is given here.
Result category, one only: label 1 (active), label 0 (inactive)

Kindly provide the recorded test outcome for the following molecule: CC(C)[C@H]1CN(CC2CCCCC2)CCCN1Cc1ccccc1
label 1

Which result was noted for this molecule in the test: COc1ccc(CN2CCCN(Cc3ccccc3)[C@H](Cc3ccccc3)C2)cc1
label 0

For c1ccc(CCN2CCCN(Cc3ccccc3)[C@@H](Cc3ccccc3)C2)cc1 , which call appears in the assay record?
label 1

How was C[C@@H]1CN(CC2CCCCC2)CCCN1Cc1ccccc1 classified in this test?
label 0

Which outcome was entered for the molecule CC(C)=CCN1CCCN(Cc2ccccc2)[C@H](Cc2ccccc2)C1 in this test?
label 0

Status in this test for c1ccc(CCCN2CCCN(Cc3ccccc3)[C@H](Cc3ccccc3)C2)cc1 ?
label 1

Per the records of this test, what outcome belongs to c1ccc(C[C@@H]2CN(Cc3ccccc3)CCCN2Cc2ccccc2)cc1 ?
label 1

Short answer needed: outcome of this test for CCCCN1CCCN(Cc2ccccc2)[C@H](Cc2ccccc2)C1 ?
label 0

# outcome recorded in this test, key = CN1CCCN(Cc2ccccc2)[C@@H](Cc2ccccc2)C1
label 0
